Target protein (sequence): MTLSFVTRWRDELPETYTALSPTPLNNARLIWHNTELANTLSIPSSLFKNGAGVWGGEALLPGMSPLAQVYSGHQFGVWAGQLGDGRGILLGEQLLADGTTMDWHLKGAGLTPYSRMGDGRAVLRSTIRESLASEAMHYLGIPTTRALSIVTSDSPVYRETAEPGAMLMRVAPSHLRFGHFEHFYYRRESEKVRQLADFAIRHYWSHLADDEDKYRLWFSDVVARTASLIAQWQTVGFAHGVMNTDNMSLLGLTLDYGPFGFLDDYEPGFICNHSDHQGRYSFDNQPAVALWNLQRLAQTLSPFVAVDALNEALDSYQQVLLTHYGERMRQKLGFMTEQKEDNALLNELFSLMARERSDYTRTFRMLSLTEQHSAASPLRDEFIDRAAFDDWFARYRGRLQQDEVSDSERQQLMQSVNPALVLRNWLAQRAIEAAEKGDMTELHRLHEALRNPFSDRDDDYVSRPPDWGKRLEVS
metric: Kd

Input: For the compound shown here, `Nc1ncnc2c1ncn2[C@@H]1O[C@H](COP(=O)(O)OP(=O)(O)NP(=O)(O)O)[C@@H](O)[C@H]1O` , give the reported Kd.
Output: ~18 µM

Proceed to the following item.
Input: For the compound shown here, `O=c1ccn([C@@H]2O[C@H](COP(=O)(O)NP(=O)(O)OP(=O)(O)O)[C@@H](O)[C@H]2O)c(=O)[nH]1` , give the reported Kd.
Output: ~0.14 µM
